Tested on: A-431
method.notes: Antiproliferative activity against human A431 cells assessed as reduction in cell viability after 24 hrs by MTT assay
Format: functional, cell-based
reported.conditions: A-431, 24 h
Entries and their IC50
measured.property: IC50

[[record]]
molecule = "C[C@@H]1CC[C@H]2[C@@H](C)C(=O)O[C@@H]3O[C@@]4(C)CC[C@@H]1[C@]32OO4 [ARTEMISININ]"
system = "A-431"
measured_property = "IC50"
assay_value = "39 to 68.8 µM"

[[record]]
molecule = "CC(=O)c1ccc(-n2cc(CO[C@H]3O[C@@H]4O[C@@]5(C)CC[C@H]6[C@H](C)CC[C@@H]([C@H]3C)[C@@]46OO5)nn2)cc1"
system = "A-431"
measured_property = "IC50"
assay_value = "4.06 to 89.9 µM"

[[record]]
molecule = "COc1cccc2c1C(=O)c1c(O)c3c(c(O)c1C2=O)C[C@@](O)(C(=O)CO)C[C@@H]3O[C@H]1C[C@H](N)[C@H](O)[C@H](C)O1 [DOXORUBICIN]"
system = "A-431"
measured_property = "IC50"
assay_value = "1.43 to 12 µM"


Values were extracted from ChEMBL document CHEMBL4342418.
